Values compiled from ChEMBL document CHEMBL1147215.

target.or.system: Nitric oxide synthase, inducible (Homo sapiens, UniProt P35228)
Sequence (P35228 whole entry): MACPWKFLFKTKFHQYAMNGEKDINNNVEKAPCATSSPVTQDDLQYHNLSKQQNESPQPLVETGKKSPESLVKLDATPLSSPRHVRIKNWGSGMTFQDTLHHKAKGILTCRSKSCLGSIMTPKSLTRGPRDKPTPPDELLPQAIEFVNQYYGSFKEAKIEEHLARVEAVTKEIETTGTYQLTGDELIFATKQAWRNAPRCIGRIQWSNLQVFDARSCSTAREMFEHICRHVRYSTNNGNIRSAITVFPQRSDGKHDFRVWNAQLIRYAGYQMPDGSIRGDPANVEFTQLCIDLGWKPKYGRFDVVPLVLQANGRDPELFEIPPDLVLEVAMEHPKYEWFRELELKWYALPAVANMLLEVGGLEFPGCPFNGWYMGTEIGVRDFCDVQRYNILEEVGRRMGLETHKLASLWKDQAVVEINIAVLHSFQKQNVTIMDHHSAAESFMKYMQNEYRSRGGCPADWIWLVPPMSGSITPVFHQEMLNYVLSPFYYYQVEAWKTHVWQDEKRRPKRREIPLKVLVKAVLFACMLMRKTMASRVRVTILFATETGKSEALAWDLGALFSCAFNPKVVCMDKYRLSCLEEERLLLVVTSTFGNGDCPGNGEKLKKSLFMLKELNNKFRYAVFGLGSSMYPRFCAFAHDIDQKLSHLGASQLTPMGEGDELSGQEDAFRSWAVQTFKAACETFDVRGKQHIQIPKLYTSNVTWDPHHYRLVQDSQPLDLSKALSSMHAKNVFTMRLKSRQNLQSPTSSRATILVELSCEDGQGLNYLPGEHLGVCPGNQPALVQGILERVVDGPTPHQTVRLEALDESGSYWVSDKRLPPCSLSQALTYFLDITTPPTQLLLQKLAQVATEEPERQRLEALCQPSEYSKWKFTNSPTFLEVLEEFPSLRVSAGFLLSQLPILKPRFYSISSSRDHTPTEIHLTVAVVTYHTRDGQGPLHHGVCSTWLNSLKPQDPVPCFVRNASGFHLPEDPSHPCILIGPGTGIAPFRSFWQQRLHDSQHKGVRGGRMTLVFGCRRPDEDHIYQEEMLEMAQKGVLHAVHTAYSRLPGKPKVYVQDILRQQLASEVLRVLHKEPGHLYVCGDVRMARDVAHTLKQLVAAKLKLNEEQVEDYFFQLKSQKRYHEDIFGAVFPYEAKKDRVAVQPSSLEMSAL
Threshold 20 µM. IC50 below it: Met. IC50 at it or above: Not met.

# compound, class.label
rows = [
    ("N=C(Nc1ccc2sc(N)nc2c1)c1cccs1", "Not met"),
    ("N=C(Nc1ccc2nc(NCCN3CCOCC3)sc2c1)c1cccs1", "Not met"),
    ("N=C(Nc1ccc2nc(NC3CCN(Cc4ccccc4)CC3)sc2c1)c1cccs1", "Met"),
    ("N=C(Nc1ccc2nc(NC3CCOCC3)sc2c1)c1cccs1", "Not met"),
    ("N=C(Nc1ccc2nc(NCCc3ccc(Br)cc3)sc2c1)c1cccs1", "Not met"),
    ("NC(=Nc1ccc2nc(NC3CCN(CCc4cnc[nH]4)CC3)sc2c1)c1cccs1", "Met"),
    ("N=C(Nc1ccc2nc(NCCc3ccccn3)sc2c1)c1cccs1", "Met"),
    ("CN1CCCC1CCNc1nc2cc(NC(=N)c3cccs3)ccc2s1 (racemic)", "Met"),
]

Qu. # strict comparison: is reported IC50 < 20 µM? input = `N=C(Nc1ccc2nc(NC3CCN(Cc4ccc(C(=O)O)cc4)CC3)sc2c1)c1cccs1`
Ans. Not met
